meta.source: patent US20220041746A1

Target entity: T1, hCD38-his (SEQ ID NO: 2) (human, UniProt P28907 45-300)
T1 construct: His-tagged soluble protein derived from isoform A; also called human CD38-histag; hCD38::Histag
Method description: SPR, mAb captured via anti-human Fc, soluble CD38-his injected
Procedure: The binding properties of the anti-huCD38 mabs were evaluated using a BIAcore 2000 (BIAcore Inc., Uppsala, Ni). […] The surface was regenerated between injections using 30 μL of 50 mM NaOH-1 M NaCl. Individual sensorgrams wore analyzed using BIAsimulation software.
Measured property: pKd
Convention used: pKd is expressed as -log10 of the molar concentration.

Data request: Need pKd of mAb3 (antibody, human IgG1, kappa, V domains shown, also called antiCD38_C2-CD38-1_VH3-VL3) VH: QVQLVQSGAEVVKPGASVKVSCKASGYTFTSFNMHWVKEAPGQRLEWIGYIYPGNGGTNYNQKFQGRATLTADTSASTAYMELSSLRSEDTAVYFCARTGGLRRAYFTYWGQGTLVTVSS VL: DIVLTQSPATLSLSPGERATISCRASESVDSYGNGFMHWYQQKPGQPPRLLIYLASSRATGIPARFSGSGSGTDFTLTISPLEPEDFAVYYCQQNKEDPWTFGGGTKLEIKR , thanks.
Data returned: 9.32
